The entries below are paired with their reported pKi.
Target: OGDH (Rattus norvegicus)
Sequence (Q5XI78 41-1023): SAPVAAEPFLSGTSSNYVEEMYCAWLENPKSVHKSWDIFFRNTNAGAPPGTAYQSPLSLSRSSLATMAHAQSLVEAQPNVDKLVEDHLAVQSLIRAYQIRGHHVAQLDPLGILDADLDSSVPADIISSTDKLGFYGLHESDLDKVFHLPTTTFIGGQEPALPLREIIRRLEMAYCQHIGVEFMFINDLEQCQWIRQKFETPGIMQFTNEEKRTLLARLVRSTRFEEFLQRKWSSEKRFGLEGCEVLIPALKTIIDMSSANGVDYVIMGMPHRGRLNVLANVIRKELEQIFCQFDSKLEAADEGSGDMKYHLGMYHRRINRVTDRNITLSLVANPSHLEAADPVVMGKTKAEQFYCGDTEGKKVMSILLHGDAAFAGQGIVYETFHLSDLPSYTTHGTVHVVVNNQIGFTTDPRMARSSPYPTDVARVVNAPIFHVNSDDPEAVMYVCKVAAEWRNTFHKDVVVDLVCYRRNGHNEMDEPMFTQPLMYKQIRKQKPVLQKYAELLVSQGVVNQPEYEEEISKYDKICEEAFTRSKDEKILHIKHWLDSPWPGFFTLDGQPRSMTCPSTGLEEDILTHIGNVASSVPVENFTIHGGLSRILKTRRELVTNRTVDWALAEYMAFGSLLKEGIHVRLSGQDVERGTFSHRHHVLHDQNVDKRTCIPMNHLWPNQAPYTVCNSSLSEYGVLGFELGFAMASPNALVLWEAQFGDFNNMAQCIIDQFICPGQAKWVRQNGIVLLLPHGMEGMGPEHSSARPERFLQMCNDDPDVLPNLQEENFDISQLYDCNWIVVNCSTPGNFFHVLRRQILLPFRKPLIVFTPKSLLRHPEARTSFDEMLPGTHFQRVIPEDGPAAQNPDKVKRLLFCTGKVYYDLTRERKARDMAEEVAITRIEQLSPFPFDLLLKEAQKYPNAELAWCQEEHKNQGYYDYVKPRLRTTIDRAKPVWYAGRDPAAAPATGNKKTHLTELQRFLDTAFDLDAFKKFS
Sequence (Q01205 69-454 partner): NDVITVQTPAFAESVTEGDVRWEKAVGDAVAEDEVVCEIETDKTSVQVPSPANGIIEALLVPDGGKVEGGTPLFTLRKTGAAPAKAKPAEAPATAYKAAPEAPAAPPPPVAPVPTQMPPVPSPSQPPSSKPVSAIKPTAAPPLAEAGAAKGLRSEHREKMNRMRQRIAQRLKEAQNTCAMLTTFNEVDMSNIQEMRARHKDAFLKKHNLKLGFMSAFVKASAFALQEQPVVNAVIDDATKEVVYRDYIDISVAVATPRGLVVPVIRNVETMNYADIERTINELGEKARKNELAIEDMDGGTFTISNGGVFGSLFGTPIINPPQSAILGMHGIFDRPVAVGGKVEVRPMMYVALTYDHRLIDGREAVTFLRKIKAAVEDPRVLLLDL
Sequence (Q6P6R2 36-509 partner): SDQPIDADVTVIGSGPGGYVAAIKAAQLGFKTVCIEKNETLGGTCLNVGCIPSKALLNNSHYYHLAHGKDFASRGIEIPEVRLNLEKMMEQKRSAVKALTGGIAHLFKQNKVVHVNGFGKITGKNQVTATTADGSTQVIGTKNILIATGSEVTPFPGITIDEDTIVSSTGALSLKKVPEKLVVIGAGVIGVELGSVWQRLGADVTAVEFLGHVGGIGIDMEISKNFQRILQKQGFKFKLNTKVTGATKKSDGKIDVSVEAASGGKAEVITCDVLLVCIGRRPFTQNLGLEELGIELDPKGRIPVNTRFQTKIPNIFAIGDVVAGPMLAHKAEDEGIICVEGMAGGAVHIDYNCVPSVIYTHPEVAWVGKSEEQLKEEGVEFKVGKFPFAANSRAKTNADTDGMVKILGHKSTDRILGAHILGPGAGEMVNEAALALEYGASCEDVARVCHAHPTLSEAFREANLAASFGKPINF
Assay: OGDH reaction (OG saturation) catalyzed by the enzyme preparation from rat liver
Assay type: biochemical
Parameters: the tissue fractions with the complexes enriched to a degree allowing for a robust detection of the enzymatic activities, have been used; from tissue
Conditions: Eadie-Hofstee, read-out: Ki, EH
pKi: −log10 of the molar value.

>  <compound>
O=C(O)CCCCC(=O)P(=O)(O)O [AP, adipoyl phosphonate]

>  <test system>
OGDH (Rattus norvegicus)

>  <pKi>
3.49

$$$$
>  <compound>
O=C(O)CCCC(=O)P(=O)(O)O [GP, glutaryl phosphonate]

>  <test system>
OGDH (Rattus norvegicus)

>  <pKi>
5.21

$$$$
